target-or-test-system: Full-length inactive AKT1 (Homo sapiens (Human), UniProt P31749)
Sequence (P31749 whole entry): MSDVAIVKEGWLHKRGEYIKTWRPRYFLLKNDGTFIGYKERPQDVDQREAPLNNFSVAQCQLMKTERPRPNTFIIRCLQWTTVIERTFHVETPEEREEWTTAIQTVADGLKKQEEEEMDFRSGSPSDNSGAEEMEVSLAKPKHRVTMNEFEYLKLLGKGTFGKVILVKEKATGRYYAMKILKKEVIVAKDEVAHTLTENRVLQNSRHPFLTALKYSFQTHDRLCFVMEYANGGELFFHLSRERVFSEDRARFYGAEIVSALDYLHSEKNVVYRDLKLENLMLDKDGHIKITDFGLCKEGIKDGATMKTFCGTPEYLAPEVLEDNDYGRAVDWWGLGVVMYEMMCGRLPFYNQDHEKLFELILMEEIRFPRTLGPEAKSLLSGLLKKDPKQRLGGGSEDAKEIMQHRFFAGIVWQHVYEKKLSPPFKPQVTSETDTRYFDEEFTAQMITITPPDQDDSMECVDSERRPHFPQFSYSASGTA
method-summary: Inactive Akt Alpha Screen Assay (AKT1, crosstide substrate)
condition-notes: full-length inactive AKT1 activated by PDK1 and MAPKAPK2, lipid vesicles, 50 μM ATP; biotinylated crosstide substrate; read-out: Akt1 biochemical assay IC50 AlphaScreen crosstide
IC50 less than 6 nM is label 1; IC50 greater than or equal to 6 nM is label 0.

[[record]]
chemical_string = "NC1(c2ccc(-n3c(-c4ccc(O)cc4)nc4ccc(-c5cccc(N6CCOCC6)c5)nc43)cc2)CCC1"
class = "label 1"

[[record]]
chemical_string = "NC1(c2ccc(-n3c(-c4cnccn4)nc4ccc(-c5cccc(N6CCOCC6)c5)nc43)cc2)CCC1"
class = "label 1"

[[record]]
chemical_string = "NC1(c2ccc(-n3c(-c4cccc(F)c4)nc4ccc(-c5cccc(N6CCOCC6)c5)nc43)cc2)CCC1"
class = "label 1"

[[record]]
chemical_string = "NC1(c2ccc(-n3c(-c4ccccc4F)nc4ccc(-c5cccc(N6CCOCC6)c5)nc43)cc2)CCC1"
class = "label 1"

[[record]]
chemical_string = "NC1(c2ccc(-n3c(-c4ccccc4)nc4ccc(Nc5ccccc5)nc43)cc2)CCC1"
class = "label 1"

[[record]]
chemical_string = "NC1(c2ccc(-n3c(-c4ccccc4)nc4ccc(-c5ccccc5)nc43)cc2)CCC1"
class = "label 0"

[[record]]
chemical_string = "NC1(c2ccc(-n3c(-c4cccnc4)nc4ccc(-c5cccc(N6CCOCC6)c5)nc43)cc2)CCC1"
class = "label 1"

[[record]]
chemical_string = "NC1(c2ccc(-n3c(C4CC4)nc4ccc(-c5cccc(N6CCOCC6)c5)nc43)cc2)CCC1"
class = "label 0"

[[record]]
chemical_string = "NC1(c2ccc(-n3c(-c4cccs4)nc4ccc(-c5cccc(N6CCOCC6)c5)nc43)cc2)CCC1"
class = "label 0"

[[record]]
chemical_string = "CNC(=O)c1cccc(-c2ccc3nc(-c4ccccc4)n(-c4ccc(C5(N)CCC5)cc4)c3n2)c1"
class = "label 1"

[[record]]
chemical_string = "CN(C)C(=O)c1cccc(-c2ccc3nc(-c4ccccc4)n(-c4ccc(C5(N)CCC5)cc4)c3n2)c1"
class = "label 1"

[[record]]
chemical_string = "NC1(c2ccc(-n3c(-c4cccnc4F)nc4ccc(-c5ccccc5)nc43)cc2)CCC1"
class = "label 0"

[[record]]
chemical_string = "NC1(c2ccc(-n3c(-c4ccsc4)nc4ccc(-c5cccc(N6CCOCC6)c5)nc43)cc2)CCC1"
class = "label 1"

[[record]]
chemical_string = "NC1(c2ccc(-n3c(-c4nccs4)nc4ccc(-c5cccc(N6CCOCC6)c5)nc43)cc2)CCC1"
class = "label 1"

[[record]]
chemical_string = "NC1(c2ccc(-n3c(-c4ccc(F)cc4)nc4ccc(-c5cccc(N6CCOCC6)c5)nc43)cc2)CCC1"
class = "label 0"

